experimental_target: Aminopeptidase N (Plasmodium falciparum (isolate 3D7)) (UniProt O96935)
Sequence (O96935 whole entry, looked up): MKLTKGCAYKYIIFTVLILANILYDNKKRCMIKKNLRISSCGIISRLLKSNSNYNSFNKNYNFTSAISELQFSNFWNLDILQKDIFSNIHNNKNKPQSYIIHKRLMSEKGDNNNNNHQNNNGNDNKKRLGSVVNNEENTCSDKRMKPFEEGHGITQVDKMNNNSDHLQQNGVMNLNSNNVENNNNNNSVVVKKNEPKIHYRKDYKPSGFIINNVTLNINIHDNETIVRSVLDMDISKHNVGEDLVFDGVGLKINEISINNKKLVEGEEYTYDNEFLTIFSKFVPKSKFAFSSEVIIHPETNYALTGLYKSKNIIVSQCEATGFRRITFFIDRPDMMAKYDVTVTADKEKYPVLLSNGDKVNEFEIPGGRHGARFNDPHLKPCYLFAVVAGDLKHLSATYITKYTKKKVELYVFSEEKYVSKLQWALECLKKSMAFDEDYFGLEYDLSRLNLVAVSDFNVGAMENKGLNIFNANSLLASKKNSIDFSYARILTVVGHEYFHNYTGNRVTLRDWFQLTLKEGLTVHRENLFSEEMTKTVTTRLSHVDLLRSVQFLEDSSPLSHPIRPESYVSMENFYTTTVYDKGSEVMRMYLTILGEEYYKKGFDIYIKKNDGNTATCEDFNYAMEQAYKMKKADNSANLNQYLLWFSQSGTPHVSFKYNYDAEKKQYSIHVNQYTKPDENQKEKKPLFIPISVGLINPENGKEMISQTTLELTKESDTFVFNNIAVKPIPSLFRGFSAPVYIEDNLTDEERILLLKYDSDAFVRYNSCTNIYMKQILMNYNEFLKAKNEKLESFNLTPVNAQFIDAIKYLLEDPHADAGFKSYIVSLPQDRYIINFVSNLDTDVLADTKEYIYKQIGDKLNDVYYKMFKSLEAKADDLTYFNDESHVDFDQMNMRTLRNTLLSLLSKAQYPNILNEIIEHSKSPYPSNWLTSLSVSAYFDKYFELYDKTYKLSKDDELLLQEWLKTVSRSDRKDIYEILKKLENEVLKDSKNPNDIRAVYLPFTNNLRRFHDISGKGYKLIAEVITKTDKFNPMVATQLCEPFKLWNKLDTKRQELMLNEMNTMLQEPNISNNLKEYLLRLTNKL
assay_name: malaria alanyl aminopeptidase activity blockers – biochemical, fluorogenic H-Leu-NHMec substrate, 1536-well (AID 1445);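 further: plate controls were DMSO full reaction for no effect and no enzyme background for full effect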
measurement_parameters: recombinant M1AAP, H-Leu-NHMec fluorogenic kinetic assay; at 30 µM, active compounds read high unless noted
Among all 220,000 compounds or so, about 910 (0.41%) were called active. The sample holds actives, similar compounds and a random draw of the others, so the mix is not that of the screen. Entries with a potency or affinity are not part of this list.
Form field: inhibition (one value per entry).
Your answer is read as %, so omit the unit and give the number.

Previously resolved entries follow.
{"columns": ["compound", "reported_metric", "units_of_measure", "observed_result"],
 "data": [
  ["NC1=C(c2ccc(F)cc2)C(=O)CS1", "inhibition", "%", -0.25],
  ["Cc1cc(C)c(/C=C(\\C#N)S(=O)(=O)c2ccccc2)[nH]1", "inhibition", "%", -6.03],
  ["NC(=O)CN1C(=O)C2CCCCN2C(=O)c2ccccc21 (stereo not given)", "inhibition", "%", -4.54],
  ["Nc1nc(COc2ccc3ccccc3c2)cs1", "inhibition", "%", -0.25]
]}

Let me check: `CC1(C)Cc2nc3sc(C(=O)NCCO)c(N)c3cc2CO1` , system Aminopeptidase N (Plasmodium falciparum (isolate 3D7)) (UniProt O96935), measured inhibition is 1.79

Let me check: `Cc1ccccc1C(=O)NC1CCN(CC(=O)NCc2ccc(F)cc2)CC1` , system Aminopeptidase N (Plasmodium falciparum (isolate 3D7)) (UniProt O96935), measured inhibition is 3.39

Let me check: `O=C(NCc1cccnc1)c1cc([N+](=O)[O-])ccc1N1CCOCC1` , system Aminopeptidase N (Plasmodium falciparum (isolate 3D7)) (UniProt O96935), measured inhibition is 4.23

Let me check: `COc1ccc(NS(=O)(=O)c2cccc(C(=O)N/N=C/c3ccc(O)cc3)c2)cc1` , system Aminopeptidase N (Plasmodium falciparum (isolate 3D7)) (UniProt O96935), measured inhibition is 7.62

Let me check: `CCOc1cc(C(=O)N(C)Cc2cc3ccccc3[nH]c2=O)cc(OCC)c1OCC` , system Aminopeptidase N (Plasmodium falciparum (isolate 3D7)) (UniProt O96935), measured inhibition is 4.4

Let me check: `Cc1ccccc1C(=O)NC1CCN(CC(=O)Nc2ccc3c(c2)OCO3)CC1` , system Aminopeptidase N (Plasmodium falciparum (isolate 3D7)) (UniProt O96935), measured inhibition is 10.9

###

experimental_target: Aminopeptidase N (Plasmodium falciparum (isolate 3D7)) (UniProt O96935)
assay_name: malaria alanyl aminopeptidase activity blockers – biochemical, fluorogenic H-Leu-NHMec substrate, 1536-well (AID 1445)
measurement_parameters: recombinant M1AAP, H-Leu-NHMec fluorogenic kinetic assay; at 30 µM, active compounds read high unless noted
In all, about 220,000 compounds went through this assay and about 910 (0.41%) were called active. For the sample, actives were picked, then their nearest neighbours and some compounds at random. Entries with a potency or affinity are not part of this list.
reported_metric: inhibition (%)
Your answer is read as %, so omit the unit and give the number.

{"columns": ["compound", "experimental_target", "inhibition / %"],
 "data": [
  ["Cc1cc(C)cc(NC(=O)C(OC(=O)c2cccs2)c2ccccc2)c1 (stereo not drawn)", "Aminopeptidase N (Plasmodium falciparum (isolate 3D7)) (UniProt O96935)", 3.45]
]}

Recorded result, `COc1ccc(/C=N/N2C(=O)CSC2=S)cc1` , inhibition: 10.4

Recorded result, `COc1ccc(C(=O)N/N=C/c2cc3ccccc3[nH]c2=O)cc1` , inhibition: 6.42

###

experimental_target: Aminopeptidase N (Plasmodium falciparum (isolate 3D7)) (UniProt O96935)
assay_name: malaria alanyl aminopeptidase activity blockers – biochemical, fluorogenic H-Leu-NHMec substrate, 1536-well (AID 1445)
measurement_parameters: recombinant M1AAP, H-Leu-NHMec fluorogenic kinetic assay; at 30 µM, active compounds read high unless noted
The campaign covered roughly 220,000 compounds. About 910 (0.41%) were called active. Only a selection was taken, and actives are over-represented in it overall. Potency and affinity values are given separately.
Form field: inhibition (one value per entry).
Your answer is read as %, so omit the unit and give the number.

Previously resolved entries follow.
{"columns": ["compound", "experimental_target", "units_of_measure", "inhibition"],
 "data": [
  ["CCOC(=O)COc1ccc2ccccc2c1/C=C/[N+](=O)[O-]", "Aminopeptidase N (Plasmodium falciparum (isolate 3D7)) (UniProt O96935)", "%", 4.98],
  ["Cc1sc2ncn(CC(=O)N3CCOCC3)c(=O)c2c1-c1ccccc1", "Aminopeptidase N (Plasmodium falciparum (isolate 3D7)) (UniProt O96935)", "%", 22.3],
  ["CCOC(=O)Cc1cc(=O)n2[nH]c(-c3ccc(Cl)cc3)cc2n1", "Aminopeptidase N (Plasmodium falciparum (isolate 3D7)) (UniProt O96935)", "%", 7.9],
  ["O=C(O)c1ccc(N2C(=O)c3[nH]nc(-c4ccccc4)c3C2c2ccccc2)cc1 (stereo not given)", "Aminopeptidase N (Plasmodium falciparum (isolate 3D7)) (UniProt O96935)", "%", 2.78]
]}

Pending compound:
Recorded result, `COc1ccc(N)cc1C#N` , inhibition: 2.91

###

experimental_target: Aminopeptidase N (Plasmodium falciparum (isolate 3D7))
assay_name: malaria alanyl aminopeptidase activity blockers – biochemical, fluorogenic H-Leu-NHMec substrate, 1536-well (AID 1445);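 further: plate controls were DMSO full reaction for no effect and no enzyme background for full effect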
measurement_parameters: recombinant M1AAP, H-Leu-NHMec fluorogenic kinetic assay; at 30 µM, active compounds read high unless noted
Among all 220,000 compounds or so, about 910 (0.41%) were called active. This is one part of a sample in which actives are shown more often than they occur. Results with a measured potency or affinity are listed apart.
Form field: inhibition (one value per entry).
Your answer is read as %, so omit the unit and give the number.

Previously resolved entries follow.
{"columns": ["compound", "units_of_measure", "inhibition"],
 "data": [
  ["COc1ccc(NC(=O)NCc2ccco2)c(OC)c1", "%", 1.06],
  ["CCOc1cc(/C=N/N=C2/NC(=O)C(CC(=O)O)S2)ccc1OCc1ccc(Cl)cc1 (stereo unspecified)", "%", 9.38],
  ["CCOc1cc(/C=N/O)ccc1OS(=O)(=O)c1ccc(C)cc1", "%", 13.6],
  ["COc1ccc(C2CC(c3c(-c4ccccc4)c4cc(Cl)ccc4[nH]c3=O)=NN2S(C)(=O)=O)cc1 (stereo unspecified)", "%", 2.82]
]}

Recorded result, CC(=O)N1N=C(c2c(-c3ccccc3)c3cc(C)ccc3[nH]c2=O)CC1c1ccco1 (stereo unspecified) , inhibition: 20

Recorded result, `CCc1cc2c(=O)c(-c3nc4ccccc4n3C)c(C)oc2c(CN(CC)CC)c1O` , inhibition: 6.03

Recorded result, COc1cc(/C=N/N=C2/NC(=O)C(CC(=O)O)S2)ccc1OCc1ccc(Cl)cc1 (stereo unspecified) , inhibition: 21.8

Recorded result, `COc1cc(/C=C2\SC(c3ccc(C)cc3)=NC2=O)cc(OC)c1OC` , inhibition: -0.48

Recorded result, COc1ccc(NC(=O)C2C3C=CC(C3)C2C(=O)NCc2ccccn2)c(OC)c1 (stereo unspecified) , inhibition: 25.6

Recorded result, `Nc1nc(CSc2ncccn2)nc(Nc2ccccc2)n1` , inhibition: -3.84

Recorded result, `O=Cc1ccc(-c2ccc(F)cc2)o1` , inhibition: 12.4

Recorded result, `CCc1c(C)c2cc(Cl)c(O)c(CN(C)C)c2oc1=O` , inhibition: -5.92

###

experimental_target: Aminopeptidase N (Plasmodium falciparum (isolate 3D7)) (UniProt O96935)
assay_name: malaria alanyl aminopeptidase activity blockers – biochemical, fluorogenic H-Leu-NHMec substrate, 1536-well (AID 1445);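 further: plate controls were DMSO full reaction for no effect and no enzyme background for full effect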
measurement_parameters: recombinant M1AAP, H-Leu-NHMec fluorogenic kinetic assay; at 30 µM, active compounds read high unless noted
The campaign covered roughly 220,000 compounds. About 910 (0.41%) were called active. For the sample, actives were picked, then their nearest neighbours and some compounds at random. Measured potencies and affinities stand elsewhere.
Form field: inhibition (one value per entry).
Your answer is read as %, so omit the unit and give the number.

Previously resolved entries follow.
{"columns": ["input_smiles", "observed_result"],
 "data": [
  ["O=C(NNC(=O)c1ccccc1Br)c1ccccc1Cl", 5.77],
  ["O=C(NNC(=O)c1ccccc1Cl)c1ccccc1Cl", -3.69],
  ["O=c1[nH]c(SCc2ccccc2Cl)nc2c1CCC2", -1.92]
]}

Pending compound:
Recorded result, `COc1ccc(OC)c2sc(NC(=O)c3ccc(S(=O)(=O)N4CCOCC4)cc3)nc12` , inhibition: -1.73

###

Form field: inhibition (one value per entry).
experimental_target: Aminopeptidase N (Plasmodium falciparum (isolate 3D7)) (UniProt O96935)
assay_name: malaria alanyl aminopeptidase activity blockers – biochemical, fluorogenic H-Leu-NHMec substrate, 1536-well (AID 1445);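 further: plate controls were DMSO full reaction for no effect and no enzyme background for full effect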
measurement_parameters: recombinant M1AAP, H-Leu-NHMec fluorogenic kinetic assay; at 30 µM, active compounds read high unless noted
In all, about 220,000 compounds went through this assay and about 910 (0.41%) were called active. The sample holds actives, similar compounds and a random draw of the others, so the mix is not that of the screen. Entries with a potency or affinity are not part of this list.
Your answer is read as %, so omit the unit and give the number.

{"columns": ["molecule", "inhibition / %"],
 "data": [
  ["CN1CCN(C(=O)c2cc(Cl)ccc2Cl)CC1", 8.9],
  ["N#Cc1cc2c(nc1Cl)CCCC2", 3.36],
  ["O=C(CCC1CCCC1)N1CCN(C(=O)COc2ccccc2)CC1", 21.1]
]}

Let me check: CCCCCC(=O)N(O)C1CC(=O)N(c2ccccc2)C1=O (stereo not given) , system Aminopeptidase N (Plasmodium falciparum (isolate 3D7)) (UniProt O96935), measured inhibition is 11.5

Let me check: `O=C(N/N=C/c1ccccc1Cl)c1[nH]c2ccc(Br)cc2c1-c1ccccc1` , system Aminopeptidase N (Plasmodium falciparum (isolate 3D7)) (UniProt O96935), measured inhibition is -5.79

Let me check: CC(c1cccs1)N(Cc1ccco1)C(=S)Nc1ccc(F)c(Cl)c1 (stereo not given) , system Aminopeptidase N (Plasmodium falciparum (isolate 3D7)) (UniProt O96935), measured inhibition is 4.95

Let me check: `CCC(=O)NC(=S)Nc1ccc(N2CCOCC2)cc1` , system Aminopeptidase N (Plasmodium falciparum (isolate 3D7)) (UniProt O96935), measured inhibition is 4.46

Let me check: `O=C(Nn1cc(C(=O)Nc2ccc(F)cc2F)c2ccccc2c1=O)c1cnccn1` , system Aminopeptidase N (Plasmodium falciparum (isolate 3D7)) (UniProt O96935), measured inhibition is 5.45
